Attribute: pEC50
EXPERIMENTAL_TARGET: UniProt:Q8TDV5
Sequence (Q8TDV5 whole entry): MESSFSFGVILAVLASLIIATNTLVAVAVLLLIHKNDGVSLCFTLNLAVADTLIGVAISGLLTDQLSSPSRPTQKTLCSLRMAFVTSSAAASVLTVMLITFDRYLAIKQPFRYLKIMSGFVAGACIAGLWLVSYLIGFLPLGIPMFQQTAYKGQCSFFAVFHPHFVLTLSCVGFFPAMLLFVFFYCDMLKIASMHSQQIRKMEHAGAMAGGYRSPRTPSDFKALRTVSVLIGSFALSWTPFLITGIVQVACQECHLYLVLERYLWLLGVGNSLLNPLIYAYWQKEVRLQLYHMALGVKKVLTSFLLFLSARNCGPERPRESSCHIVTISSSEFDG
TEST_NAME: Agonist activity at human GPR119 by HTRF cAMP assay
Assay type: functional
pEC50: −log10 of the molar value.

{"columns": ["STRUCTURE_AS_SMILES", "EXPERIMENTAL_TARGET", "pEC50"],
 "data": [
  ["CC(C)S(=O)(=O)c1cnc(O[C@H]2CC[C@H](OC3CCN(C(=O)OC(C)(C)C)CC3)CC2)cn1", "UniProt:Q8TDV5", 7.73],
  ["CS(=O)(=O)c1cnc(O[C@H]2CC[C@H](OC3CCN(CC4(C(F)(F)F)CC4)CC3)CC2)cn1", "UniProt:Q8TDV5", 7.20],
  ["CS(=O)(=O)c1cnc(O[C@H]2CC[C@H](OC3CCN(C(=O)C4(C(F)(F)F)CC4)CC3)CC2)cn1", "UniProt:Q8TDV5", 6.97],
  ["CS(=O)(=O)c1cnc(O[C@H]2CC[C@H](OC3CCN(CC4(C(F)(F)F)CCC4)CC3)CC2)cn1", "UniProt:Q8TDV5", 7.26],
  ["CS(=O)(=O)c1cnc(O[C@H]2CC[C@H](OC3CCN(CC4(C(F)(F)F)CCCC4)CC3)CC2)cn1", "UniProt:Q8TDV5", 7.31],
  ["C[C@@H](CF)OC(=O)N1CCC(O[C@H]2CC[C@H](Oc3cnc(S(C)(=O)=O)cn3)CC2)CC1", "UniProt:Q8TDV5", 7.51],
  ["CC(C)(C)OC(=O)N1CCC(O[C@H]2CC[C@H](Oc3ccc(C#N)cc3)CC2)CC1", "UniProt:Q8TDV5", 8.07],
  ["CC(C)(C)OC(=O)N1CCC(O[C@H]2CC[C@H](Oc3cnc(S(C)(=O)=O)cn3)CC2)CC1", "UniProt:Q8TDV5", 8.23]
]}

====

EXPERIMENTAL_TARGET: Glucose-dependent insulinotropic receptor (Mus musculus)
Sequence (Q7TQP3 whole entry): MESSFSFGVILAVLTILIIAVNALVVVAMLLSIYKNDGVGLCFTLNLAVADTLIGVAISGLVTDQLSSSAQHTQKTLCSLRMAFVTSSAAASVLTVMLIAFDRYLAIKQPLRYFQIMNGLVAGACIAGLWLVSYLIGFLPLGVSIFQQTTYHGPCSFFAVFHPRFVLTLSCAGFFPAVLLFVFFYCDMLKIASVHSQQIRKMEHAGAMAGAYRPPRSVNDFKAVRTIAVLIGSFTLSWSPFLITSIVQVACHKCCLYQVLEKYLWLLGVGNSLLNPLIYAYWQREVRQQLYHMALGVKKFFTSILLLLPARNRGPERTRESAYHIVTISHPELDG
TEST_NAME: Agonist activity at mouse GPR119 by HTRF cAMP assay

{"columns": ["STRUCTURE_AS_SMILES", "EC50 / nM"],
 "data": [
  ["C[C@@H](OC(=O)N1CCC(O[C@H]2CC[C@H](Oc3cnc(S(C)(=O)=O)cn3)CC2)CC1)C(F)(F)F", 20.5]
]}

====

EXPERIMENTAL_TARGET: Glucose-dependent insulinotropic receptor (Homo sapiens)
TEST_NAME: Agonist activity at human GPR119 by HTRF cAMP assay
Type: functional
pEC50: −log10 of the molar value.
Attribute: pEC50
MEASURED_PROPERTY: pEC50

{"columns": ["MOLECULE", "REPORTED_VALUE"],
 "data": [
  ["CC(C)(C)OC(=O)N1CCC(O[C@H]2CC[C@H](Oc3ccc(S(C)(=O)=O)nn3)CC2)CC1", 6.19],
  ["CC(C)OC(=O)N1CCC(O[C@H]2CC[C@H](Oc3ccc(S(C)(=O)=O)nc3)CC2)CC1", 7.89],
  ["CS(=O)(=O)c1cnc(O[C@H]2CC[C@H](OC3CCN(C(=O)OC(C(F)(F)F)C(F)(F)F)CC3)CC2)cn1", 8.92],
  ["Cc1nc(O[C@H]2CC[C@H](OC3CCN(C(=O)OC(C)(C)C)CC3)CC2)ccc1C(=O)N(C)C", 6.58],
  ["CS(=O)(=O)c1cnc(O[C@H]2CC[C@H](OC3CCN(C(=O)OC4CCOC4)CC3)CC2)cn1 (stereo partly drawn)", 6.37],
  ["CS(=O)(=O)c1cnc(O[C@H]2CC[C@H](OC3CCN(CC(F)(F)F)CC3)CC2)cn1", 6.11],
  ["CS(=O)(=O)c1cnc(O[C@H]2CC[C@H](OC3CCN(C(=O)C4(C(F)(F)F)CCCC4)CC3)CC2)cn1", 7.42],
  ["CC(C)(C)OC(=O)N1CCC(O[C@H]2CC[C@H](Oc3cnc(C#N)cn3)CC2)CC1", 8.08]
]}
